- Tested Target: T1, C-terminal truncated RSV F protein, secreted from recombinant baculovirus-infected cells (respiratory syncytial virus (strain not …, UniProt P03420 26-526))
- T1 construct: also called F antigen of RSV
- T1 sequence (P03420 26-526): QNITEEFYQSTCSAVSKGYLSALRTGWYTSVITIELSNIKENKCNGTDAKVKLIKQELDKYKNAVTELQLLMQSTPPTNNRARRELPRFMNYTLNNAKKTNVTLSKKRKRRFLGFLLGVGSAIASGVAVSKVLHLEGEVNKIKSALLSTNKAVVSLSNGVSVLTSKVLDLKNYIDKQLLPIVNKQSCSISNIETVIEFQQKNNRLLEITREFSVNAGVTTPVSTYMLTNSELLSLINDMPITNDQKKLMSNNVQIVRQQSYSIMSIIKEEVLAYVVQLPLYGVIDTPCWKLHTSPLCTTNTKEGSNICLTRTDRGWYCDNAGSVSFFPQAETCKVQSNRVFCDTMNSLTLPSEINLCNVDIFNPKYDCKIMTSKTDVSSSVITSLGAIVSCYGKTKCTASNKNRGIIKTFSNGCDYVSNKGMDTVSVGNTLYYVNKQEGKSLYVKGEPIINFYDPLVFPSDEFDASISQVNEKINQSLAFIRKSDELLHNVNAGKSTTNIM
- Protocol Description: SPR (BIAcore), F protein immobilized, Fab injected
Observation Type: kon (M⁻¹ s⁻¹)
One number for each entry, in M⁻¹ s⁻¹.

Check out these entries, answers already filled in.
# Binder, Readout Value
records = [
    ("Clone 6 (Fab) (Fab, V domains shown) VH: QVTLRESGPALVKPTQTLTLTCTFSGFSLSTAGMSVGWIRQPPGKALEWLADIWWDDKKDYNPSLKSRLTISKDTSKNQVVLKVTNMDPADTATYYCARSMITNFYFDVWGQGTTVTVSS VL: DIQMTQSPSTLSASVGDRVTITCSASSSVGYMHWYQQKPGKAPKLLIYDTFKLASGVPSRFSGSGSGTEFTLTISSLQPDDFATYYCFQGSFYPFTFGGGTKVEIK", 185000),
    ("Clone 4 (Fab) (Fab, V domains shown, also called H3-3F4) VH: QVTLRESGPALVKPTQTLTLTCTFSGFSLSTAGMSVGWIRQPPGKALEWLADIWWDDKKDYNPSLKSRLTISKDTSKNQVVLKVTNMDPADTATYYCARDMIFNWYFDVWGQGTTVTVSS VL: DIQMTQSPSTLSASVGDRVTITCSASSSVGYMHWYQQKPGKAPKLLIYDTRYLSSGVPSRFSGSGSGTEFTLTISSLQPDDFATYYCFQGSGYPFTFGGGTKVEIK", 757000),
]

We now examine a further binder.
Fill blank: measured kon of the binder Clone 8 (Fab) (Fab, V domains shown) VH: QVTLRESGPALVKPTQTLTLTCTFSGFSLSTAGMSVGWIRQPPGKALEWLADIWWDDKKDYNPSLKSRLTISKDTSKNQVVLKVTNMDPADTATYYCARDMITNFYFDVWGQGTTVTVSS VL: DIQMTQSPSTLSASVGDRVTITCSASSSVGYMHWYQQKPGKAPKLLIYDTFRLASGVPSRFSGSGSGTEFTLTISSLQPDDFATYYCFQGSGYPFTFGGGTKVEIK is ____.
375000
